biological target: OTU domain-containing protein 3 (Homo sapiens) (UniProt Q5T2D3); experiment: Validation of screening hits, potency titration, in vitro enzymatic, OTU domain-containing protein 3 DUB inhibitors (AID 1645868); settings: purified OTUD3, ubiquitin-rhodamine cleavage fluorescence, 2 h
Sequence (Q5T2D3 whole entry, looked up, the tested form may be a part): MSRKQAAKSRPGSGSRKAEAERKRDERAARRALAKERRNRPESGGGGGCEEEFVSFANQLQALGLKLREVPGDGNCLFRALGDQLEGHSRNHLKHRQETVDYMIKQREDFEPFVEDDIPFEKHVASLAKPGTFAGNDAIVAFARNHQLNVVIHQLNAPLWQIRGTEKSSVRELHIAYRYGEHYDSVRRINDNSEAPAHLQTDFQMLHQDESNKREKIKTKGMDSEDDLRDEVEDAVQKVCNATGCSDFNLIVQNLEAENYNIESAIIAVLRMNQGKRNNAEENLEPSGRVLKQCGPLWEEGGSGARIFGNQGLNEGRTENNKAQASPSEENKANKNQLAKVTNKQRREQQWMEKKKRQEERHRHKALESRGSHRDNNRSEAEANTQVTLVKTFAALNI
The source made the active and inactive calls.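 Rule for the calls: active = maximal percent inhibition of the deubiquitinase OTUD3 of at least 30% across the tested doses; inactive = the rest.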
Your reply should match one of these outcome classes. true (1) for active, false (0) for inactive

compound: COc1ccc(NC(=O)C2[C@@H]3C(=O)N(C4CCCCC4)C(=O)[C@@H]3[C@H]3c4ccccc4C=CN23)cc1 (stereo not given in full)
target: OTU domain-containing protein 3 (Homo sapiens) (UniProt Q5T2D3)
assigned-category: false (0)

Read the next record carefully.
Q. So what was the verdict on Cc1nn(-c2ccccc2)c(C)c1C(=O)OCC(=O)Nc1cccc(C#N)c1 in this test?
A. false (0)

# credit: PubChem BioAssay AID1645868
